Where do the numbers come from? From patent US20220387405A1.

- System tested: hERG potassium channel (Homo sapiens, UniProt Q12809)
- Construct: expressed in transfected cells; host or cells: HEK-293
- Sequence (Q12809 whole entry): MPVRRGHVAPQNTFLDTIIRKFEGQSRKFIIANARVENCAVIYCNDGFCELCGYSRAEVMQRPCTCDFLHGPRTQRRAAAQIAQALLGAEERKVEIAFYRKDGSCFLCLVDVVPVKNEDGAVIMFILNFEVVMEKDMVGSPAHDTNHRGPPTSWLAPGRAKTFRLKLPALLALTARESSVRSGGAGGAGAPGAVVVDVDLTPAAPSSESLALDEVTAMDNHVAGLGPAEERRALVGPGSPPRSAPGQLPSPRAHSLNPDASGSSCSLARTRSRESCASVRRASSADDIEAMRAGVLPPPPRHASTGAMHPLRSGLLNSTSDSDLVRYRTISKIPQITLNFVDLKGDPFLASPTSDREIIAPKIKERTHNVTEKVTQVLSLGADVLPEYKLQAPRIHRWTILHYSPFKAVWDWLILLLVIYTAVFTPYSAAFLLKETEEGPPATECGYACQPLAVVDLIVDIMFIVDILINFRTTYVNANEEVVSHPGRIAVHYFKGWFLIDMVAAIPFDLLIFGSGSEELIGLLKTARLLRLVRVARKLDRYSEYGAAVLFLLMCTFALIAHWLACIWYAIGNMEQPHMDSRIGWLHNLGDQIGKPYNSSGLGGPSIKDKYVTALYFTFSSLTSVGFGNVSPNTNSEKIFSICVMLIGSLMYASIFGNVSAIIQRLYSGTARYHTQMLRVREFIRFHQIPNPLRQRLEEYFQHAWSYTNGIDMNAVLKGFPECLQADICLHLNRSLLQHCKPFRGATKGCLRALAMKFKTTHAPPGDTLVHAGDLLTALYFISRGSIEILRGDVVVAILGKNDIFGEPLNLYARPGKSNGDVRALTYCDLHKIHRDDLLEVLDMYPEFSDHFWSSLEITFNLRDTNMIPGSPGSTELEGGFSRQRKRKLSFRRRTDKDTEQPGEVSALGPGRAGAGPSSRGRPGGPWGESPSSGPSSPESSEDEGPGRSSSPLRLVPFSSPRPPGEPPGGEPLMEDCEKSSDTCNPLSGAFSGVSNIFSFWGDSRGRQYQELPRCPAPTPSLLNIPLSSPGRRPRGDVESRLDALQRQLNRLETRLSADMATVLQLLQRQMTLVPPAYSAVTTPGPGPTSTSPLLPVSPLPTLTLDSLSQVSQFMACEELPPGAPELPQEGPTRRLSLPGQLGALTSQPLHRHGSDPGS
- Assay comment: hERG IonWorks Barracuda patch clamp electrophysiology assay
- Type: cell-based
- Test conditions: human, HEK-293 cells expressing cloned hERG potassium channel; at 30 μM; read-out: percent inhibition
Parameter measured: inhibition at 30 µM

Request: For the compound shown here, O=C1CC[C@H](N2Cc3cc(C(=O)N[C@H](c4ncccc4Cl)C(F)(F)F)ccc3C2=O)C(=O)N1 [Compound 1] , give the reported inhibition at 30 µM.
Response: 19%

* * *

- Assay comment: GLP repeat-dose toxicity and toxicokinetics study in monkeys
- Type: in vivo, cynomolgus monkeys
- Test conditions: both sexes, cynomolgus monkey, plasma, po; 0.1 mg/kg, Regimen 2, sexes combined
Parameter measured: AUC (ng·h/mL)
I only need the number, in ng·h/mL, no unit after it.

Request: State the recorded AUC for this entry: O=C1CC[C@H](N2Cc3cc(C(=O)N[C@H](c4ncccc4Cl)C(F)(F)F)ccc3C2=O)C(=O)N1 [Compound 1]
Response: 173
